# assay_target: T1, human A33 antigen, full length, on cells (human, UniProt Q99795 22-319)
# T1 construct: CHO cells transfected with full length A33 cDNA (A33-CHO), or endogenous antigen of LS174T (colon) and AsPC-1 (pancreatic) tumour cells; The cell line is named under assay; also called A33-CHO; A33 antigen on LS174T cells
# T1 sequence: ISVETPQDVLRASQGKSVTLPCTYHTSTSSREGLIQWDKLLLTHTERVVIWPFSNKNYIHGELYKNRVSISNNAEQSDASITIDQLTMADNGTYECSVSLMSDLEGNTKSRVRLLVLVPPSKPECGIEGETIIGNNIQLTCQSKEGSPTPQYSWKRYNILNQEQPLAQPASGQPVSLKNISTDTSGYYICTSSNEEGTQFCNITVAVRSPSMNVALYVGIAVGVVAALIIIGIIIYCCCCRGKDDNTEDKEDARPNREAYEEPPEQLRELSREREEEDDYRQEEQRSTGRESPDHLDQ
# assay_protocol: flow cytometry on LS174T cells, 0.37ug/mL
Rule: MFI below 700 MFI gives satisfied, anything at or above gives not satisfied.

Sample answers from the record:
# binder, group
records = [
    ("humanized 31.1 antibody #2 (cdr-HC + abb-LC) (antibody, human IgG1, kappa, V domains shown, Full heavy and light chains; transient Expi293 expression, tested as culture supernatant; also called Sample ID 2; cdr31.1-HC + abb31.1-LC) VH: QIQLVQSGAEVKKPGASVKVSCKASGYTFTNYGMNWVKQAPGKGLKWMGWINTYTGEPTYADDFKGRFAFTLDTSISTAYMELSRLRSDDTAVYFCARAYYGKYFDYWGQGTTVTVSS VL: SIQMTQSPSSLSASVGDRVTITCRASQSVSNDVAWYQQKPGQSPKLLIYYASNRYSGVPDRFSGSGYGTDFTLTISSLQPEDFAVYFCQQDYSSPLTFGAGTKLEIKR", "not satisfied"),
    ("humanized 31.1 antibody #1 (cdr-HC + cdr-LC) (antibody, human IgG1, kappa, V domains shown, Full heavy (448 aa) and light (214 aa) chains; transient Expi293 expression, tested as culture supernatant; also called Sample ID 1; cdr31.1-HC + cdr31.1-LC) VH: QIQLVQSGAEVKKPGASVKVSCKASGYTFTNYGMNWVKQAPGKGLKWMGWINTYTGEPTYADDFKGRFAFTLDTSISTAYMELSRLRSDDTAVYFCARAYYGKYFDYWGQGTTVTVSS VL: SIVMTQSPSSLSASVGDRVTITCKASQSVSNDVAWYQQKPGQSPKLLIYYASNRYTGVPDRFSGSGYGTDFTLTISSLQPEDFAVYFCQQDYSSPLTFGAGTKLEIKR", "not satisfied"),
    ("humanized 31.1 antibody #3 (cdr-HC + sdr-LC) (antibody, human IgG1, kappa, V domains shown, Full heavy and light chains; transient Expi293 expression, tested as culture supernatant; also called Sample ID 3; cdr31.1-HC + sdr31.1-LC) VH: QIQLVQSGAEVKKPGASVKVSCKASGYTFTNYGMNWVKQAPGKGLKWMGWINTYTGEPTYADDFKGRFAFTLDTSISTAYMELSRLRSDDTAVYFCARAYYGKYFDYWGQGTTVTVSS VL: SIQMTQSPSSLSASVGDRVTITCRASQSISNDLAWYQQKPGQSPKLLIYYASNRYTGVPDRFSGSGYGTDFTLTISSLQPEDFAVYFCQQDYSSPLTFGAGTKLEIKR", "satisfied"),
    ("humanized 31.1 antibody #12 (sdr-HC + ven-LC) (antibody, human IgG1, kappa, V domains shown, Full heavy and light chains; transient Expi293 expression, tested as culture supernatant; also called Sample ID 12; sdr31.1-HC + ven31.1-LC) VH: QIQLVQSGAEVKKPGASVKVSCKASGYTFTNYGMNWVRQAPGKGLEWMGWINPYTGEPTYAQKFQGRVTFTLDTSISTAYMELSRLRSDDTAVYFCARAYYGKYFDYWGQGTTVTVSS VL: SIVMTQSPSSLSVSVGDRVTITCKASQSVSNDVAWYQQKPGQSPKLLIYYASNRYTGVPDRFSGSGYGTDFTFTISSVQPEDLAVYFCQQDYSSPLTFGAGTKLELKR", "satisfied"),
    ("humanized 31.1 antibody #4 (cdr-HC + ven-LC) (antibody, human IgG1, kappa, V domains shown, Full heavy and light chains; transient Expi293 expression, tested as culture supernatant; also called Sample ID 4; cdr31.1-HC + ven31.1-LC) VH: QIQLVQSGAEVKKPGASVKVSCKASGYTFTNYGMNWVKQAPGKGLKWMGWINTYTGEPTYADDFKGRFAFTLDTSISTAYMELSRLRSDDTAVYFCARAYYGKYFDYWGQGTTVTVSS VL: SIVMTQSPSSLSVSVGDRVTITCKASQSVSNDVAWYQQKPGQSPKLLIYYASNRYTGVPDRFSGSGYGTDFTFTISSVQPEDLAVYFCQQDYSSPLTFGAGTKLELKR", "not satisfied"),
    ("humanized 31.1 antibody #9 (sdr-HC + cdr-LC) (antibody, human IgG1, kappa, V domains shown, Full heavy and light chains; transient Expi293 expression, tested as culture supernatant; also called Sample ID 9; sdr31.1-HC + cdr31.1-LC) VH: QIQLVQSGAEVKKPGASVKVSCKASGYTFTNYGMNWVRQAPGKGLEWMGWINPYTGEPTYAQKFQGRVTFTLDTSISTAYMELSRLRSDDTAVYFCARAYYGKYFDYWGQGTTVTVSS VL: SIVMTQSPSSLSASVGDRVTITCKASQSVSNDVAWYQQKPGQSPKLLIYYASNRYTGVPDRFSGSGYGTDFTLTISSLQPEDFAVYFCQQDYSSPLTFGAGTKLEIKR", "satisfied"),
    ("humanized 31.1 antibody #10 (sdr-HC + abb-LC) (antibody, human IgG1, kappa, V domains shown, Full heavy and light chains; transient Expi293 expression, tested as culture supernatant; also called Sample ID 10; sdr31.1-HC + abb31.1-LC) VH: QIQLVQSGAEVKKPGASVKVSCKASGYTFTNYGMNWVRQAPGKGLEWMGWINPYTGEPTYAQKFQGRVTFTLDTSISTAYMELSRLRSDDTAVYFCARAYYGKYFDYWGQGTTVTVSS VL: SIQMTQSPSSLSASVGDRVTITCRASQSVSNDVAWYQQKPGQSPKLLIYYASNRYSGVPDRFSGSGYGTDFTLTISSLQPEDFAVYFCQQDYSSPLTFGAGTKLEIKR", "satisfied"),
    ("humanized 31.1 antibody #6 (abb31.1-HC + abb31.1-LC) (antibody, human IgG1, kappa, V domains shown, Full heavy and light chains; supernatant in the first screen, Protein A/G purified in the second round; also called Sample ID 6; abb-HC + abb-LC) VH: QIQLVQSGAEVKKPGASVKVSCKASGYTFTNYGMNWVRQAPGKGLEWMGWINTYTGEPTYAQKFQGRVTFTLDTSISTAYMELSRLRSDDTAVYFCARAYYGKYFDYWGQGTTVTVSS VL: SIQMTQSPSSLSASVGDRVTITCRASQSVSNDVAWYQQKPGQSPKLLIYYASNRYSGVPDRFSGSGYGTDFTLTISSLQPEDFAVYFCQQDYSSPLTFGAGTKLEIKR", "satisfied"),
]

Query :: Please state whether MFI is below 700 MFI for humanized 31.1 antibody #14 (ven-HC + abb-LC) (antibody, human IgG1, kappa, V domains shown, Full heavy and light chains; transient Expi293 expression, tested as culture supernatant; also called Sample ID 14; ven31.1-HC + abb31.1-LC) VH: QIQLVQSGPEVKKPGASVKISCKASGYTFTNYGMNWVKQAPGQGLKWMGWINTYTGEPTYADDFKGRFAFTLDTSISTAYLEISRLRSDDTAVYFCARAYYGKYFDYWGQGTTLTVSS VL: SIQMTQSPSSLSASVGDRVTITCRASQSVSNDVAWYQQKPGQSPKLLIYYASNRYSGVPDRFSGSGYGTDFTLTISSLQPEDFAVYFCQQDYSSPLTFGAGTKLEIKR
Result :: not satisfied

Query :: Please state whether MFI is below 700 MFI for humanized 31.1 antibody #7 (abb-HC + sdr-LC) (antibody, human IgG1, kappa, V domains shown, Full heavy and light chains; transient Expi293 expression, tested as culture supernatant; also called Sample ID 7; abb31.1-HC + sdr31.1-LC) VH: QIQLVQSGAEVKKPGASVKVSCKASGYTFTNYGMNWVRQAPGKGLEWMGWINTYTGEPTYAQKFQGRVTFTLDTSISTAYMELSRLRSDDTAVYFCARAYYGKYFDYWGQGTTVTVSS VL: SIQMTQSPSSLSASVGDRVTITCRASQSISNDLAWYQQKPGQSPKLLIYYASNRYTGVPDRFSGSGYGTDFTLTISSLQPEDFAVYFCQQDYSSPLTFGAGTKLEIKR
Result :: satisfied
